Tested on: 361931-004-R-J1-PDC multicell spheroid viability;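 further: spheroids exposed to agents for seven days before readout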
Assay Explanation: Anticancer human tumor 361931-004-R-J1-PDC patient-derived colon adenocarcinoma cell line growth inhibition [PI3K]
Condition Context: second compound 0.316 µM; first compound 0.1 µM; hits give low values
Provide the reported viability, T/C of each item.
Supply the numeric figure in %, leaving out any unit text.

In: Read the entry CC1(C)CCC(CN2CCN(c3ccc(C(=O)NS(=O)(=O)c4ccc(NCC5CCOCC5)c([N+](=O)[O-])c4)c(Oc4cnc5[nH]ccc5c4)c3)CC2)=C(c2ccc(Cl)cc2)C1 + COc1c(OCCCN2CCOCC2)ccc2c3n(c(=NC(=O)c4cnc(N)nc4)nc12)CCN3 and write its reported viability, T/C.
Out: 51.6

In: Read the entry Cn1ncc(Cl)c1-c1cc(C(=O)NC(CN)Cc2cccc(F)c2)sc1Cl (stereo not given) + CC(Nc1ncnc2nc[nH]c12)c1cc2cccc(Cl)c2c(=O)n1-c1ccccc1 and write its reported viability, T/C.
Out: 108

In: Read the entry CC(Cn1ccc(-c2ccc(C#N)c(Cl)c2)n1)NC(=O)c1cc(C(C)O)[nH]n1 (stereo not given) + COc1c(OCCCN2CCOCC2)ccc2c3n(c(=NC(=O)c4cnc(N)nc4)nc12)CCN3 and write its reported viability, T/C.
Out: 49.5

In: Read the entry CCCS(=O)(=O)Nc1ccc(F)c(C(=O)c2c[nH]c3ncc(-c4ccc(Cl)cc4)cc23)c1F + CC(Nc1ccc2c(c1)OCCn1cc(N3C(=O)OCC3C(F)F)nc1-2)C(N)=O and write its reported viability, T/C.
Out: 72.6

In: Read the entry CC(Cn1ccc(-c2ccc(C#N)c(Cl)c2)n1)NC(=O)c1cc(C(C)O)[nH]n1 (stereo not given) + CC(Nc1ncnc2nc[nH]c12)c1cc2cccc(Cl)c2c(=O)n1-c1ccccc1 and write its reported viability, T/C.
Out: 103
